These entries and their values trace back to ChEMBL document CHEMBL3085700.

# tested_system: Fatty-acid amide hydrolase 1 (Homo sapiens)
# Sequence (O00519 whole entry): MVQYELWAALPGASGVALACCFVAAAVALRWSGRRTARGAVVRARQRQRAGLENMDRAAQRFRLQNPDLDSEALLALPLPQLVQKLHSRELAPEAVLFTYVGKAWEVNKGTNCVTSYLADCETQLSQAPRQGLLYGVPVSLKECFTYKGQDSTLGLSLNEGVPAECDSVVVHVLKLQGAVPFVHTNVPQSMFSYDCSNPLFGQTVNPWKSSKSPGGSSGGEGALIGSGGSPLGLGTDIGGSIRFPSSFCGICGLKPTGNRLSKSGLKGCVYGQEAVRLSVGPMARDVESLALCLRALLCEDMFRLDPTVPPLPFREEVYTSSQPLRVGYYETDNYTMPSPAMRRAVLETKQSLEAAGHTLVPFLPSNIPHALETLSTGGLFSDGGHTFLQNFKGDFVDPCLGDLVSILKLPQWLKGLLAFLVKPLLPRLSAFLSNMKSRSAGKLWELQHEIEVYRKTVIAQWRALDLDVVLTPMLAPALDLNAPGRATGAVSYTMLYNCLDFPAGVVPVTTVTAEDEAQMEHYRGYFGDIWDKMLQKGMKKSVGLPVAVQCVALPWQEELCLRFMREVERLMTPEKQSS
# procedure_summary: Inhibition of human recombinant FAAH overexpressed in African green monkey COS7 cells using [3H]-anandamide as substrate preincubated for 10 mins before substrate addition measured after 10 mins by liquid scintillation counting analysis
# Format: cell-based, COS-7
# condition_set: read-out: IC50
pIC50: −log10 of the molar value.
Please mark Yes if the recorded pIC50 is equal to or greater than 7, and No if it falls below.

COc1nn(C(C)c2cccc(-c3ccccc3)c2)c(=O)o1 (stereo unspecified) = No
COc1nn(Cc2ccc(N(c3ccccc3)c3ccccc3)cc2)c(=O)o1 = No
CCCCCCCCCCCC(=O)c1nc2ncccc2o1 = Yes
COc1nn([C@H](C)c2ccc(CC(C)C)cc2)c(=O)o1 = No
COc1nn(C(C)c2ccc(-c3ccccc3)cc2)c(=O)o1 (racemic) = Yes
COc1nn(C(C)c2ccc(CC(C)C)cc2)c(=O)o1 (racemic) = Yes
COc1nn([C@H](C)c2ccc(-c3ccccc3)cc2)c(=O)o1 = No
COc1nn(C(C)c2ccc(Oc3ccccc3)cc2)c(=O)o1 (stereo unspecified) = Yes
